Data provenance is patent US20240058422A1.

target: GLP-1R (Homo sapiens, UniProt P43220); experiment: GLP-1 receptor-mediated cAMP induction, luciferase reporter gene antagonism assay; type: cell-based; parameters: host or cells: HEK 293; details: Table 2; C16 linker variants of 9-40amide Jant4 K40[X]; antagonism of 0.05 nM GLP-1, HEK 293 cells; read-out: Biactivity IC50
Sequence (P43220 24-463): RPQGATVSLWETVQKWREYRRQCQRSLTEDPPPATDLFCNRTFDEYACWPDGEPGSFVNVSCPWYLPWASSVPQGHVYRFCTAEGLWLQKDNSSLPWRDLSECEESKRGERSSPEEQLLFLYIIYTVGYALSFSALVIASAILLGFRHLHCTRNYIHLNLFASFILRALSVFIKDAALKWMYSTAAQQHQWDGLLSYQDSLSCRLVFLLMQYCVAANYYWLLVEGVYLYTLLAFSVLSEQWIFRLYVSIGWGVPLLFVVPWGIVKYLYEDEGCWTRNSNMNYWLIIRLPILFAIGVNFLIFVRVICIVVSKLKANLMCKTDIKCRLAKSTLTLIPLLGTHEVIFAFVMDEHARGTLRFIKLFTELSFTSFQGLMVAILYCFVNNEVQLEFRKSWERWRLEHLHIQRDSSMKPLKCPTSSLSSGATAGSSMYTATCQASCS
ASSAY_METRIC: IC50 (nM)
Numbers only; they are read as nM.

Q) Look up IC50 for this substance: H-DVSSYLEEQAVREFIAWLVKGGPSSGAPPPSK-NH2 [compound 95]
A) 281
